Readings of MIC for the listed compounds
Tested on: Staphylococcus epidermidis
Test: Antimicrobial activity against Staphylococcus epidermidis E1 incubated in CAMHB medium for 20 hrs by two-fold microbroth dilution method
Format: functional
Settings: E1, 20 h
Could you give me the number in µg/mL? Just the number is fine.

Example compounds with recorded MIC:
| mol_smiles | recorded_measurement |
| --- | --- |
| C=CCO/N=C1\[C@H](C)C[C@@](C)(OC)[C@H](O[C@@H]2O[C@H](C)C[C@H](N(C)C)[C@H]2O)[C@@H](C)[C@H](OCC#Cc2cccc(N)n2)[C@@H](C)C(=O)O[C@H](CC)[C@@]2(C)OC(=O)O[C@@H]2[C@H]1C | 256 |
| C=CCO/N=C1\[C@H](C)C[C@@](C)(OC)[C@H](O[C@@H]2O[C@H](C)C[C@H](N(C)C)[C@H]2O)[C@@H](C)[C@H](OCC#Cc2ccc(N)nc2)[C@@H](C)C(=O)O[C@H](CC)[C@@]2(C)OC(=O)O[C@@H]2[C@H]1C | 256 |

Query block: Name the value of MIC reported for CC[C@H]1OC(=O)[C@H](C)C(=O)[C@H](C)[C@@H](O[C@@H]2O[C@H](C)C[C@H](N(C)C)[C@H]2O)[C@](C)(OC)C[C@@H](C)C(=O)[C@H](C)[C@H]2N(CCCCn3cnc(-c4cccnc4)c3)C(=O)O[C@]12C when tested on Staphylococcus epidermidis.
Result block: 0.125

---

Tested on: Streptococcus pneumoniae
Assay: Antimicrobial activity against constitutively erythromycin resistant Streptococcus pneumoniae PU27 expressing c-erm incubated in CAMHB medium for 20 to 24 hrs by two-fold microbroth dilution method
Assay type: functional
# MIC per entry

| mol_smiles | MIC |
| --- | --- |
| CC[C@H]1OC(=O)[C@H](C)[C@@H](O[C@H]2C[C@@](C)(OC)[C@@H](O)[C@H](C)O2)[C@H](C)[C@@H](O[C@@H]2O[C@H](C)C[C@H](N(C)C)[C@H]2O)[C@](C)(O)C[C@@H](C)CN(C)[C@H](C)[C@@H](O)[C@]1(C)O | 64 µg/mL |

Query block: Give the value of MIC reported for the following: CC[C@H]1OC(=O)[C@H](C)C(=O)[C@H](C)[C@@H](O[C@@H]2O[C@H](C)C[C@H](N(C)C)[C@H]2O)[C@](C)(OC)C[C@@H](C)C(=O)[C@H](C)[C@H]2N(CCCCn3cnc(-c4cccnc4)c3)C(=O)O[C@]12C
Result block: ≤ 0.032 µg/mL

Query block: Answer with the recorded MIC of C=CCO/N=C1\[C@H](C)C[C@@](C)(OC)[C@H](O[C@@H]2O[C@H](C)C[C@H](N(C)C)[C@H]2O)[C@@H](C)[C@H](OCC#Cc2ccnc(N)c2)[C@@H](C)C(=O)O[C@H](CC)[C@@]2(C)OC(=O)O[C@@H]2[C@H]1C only.
Result block: 64 µg/mL

Query block: Read off the recorded MIC for C=CCO/N=C1\[C@H](C)C[C@@](C)(OC)[C@H](O[C@@H]2O[C@H](C)C[C@H](N(C)C)[C@H]2O)[C@@H](C)[C@H](OCC#Cc2cncc(C#N)c2)[C@@H](C)C(=O)O[C@H](CC)[C@@]2(C)OC(=O)O[C@@H]2[C@H]1C
Result block: 64 µg/mL

---

Parameter log10(MIC): see the listing below.
System: Streptococcus pyogenes
Assay: Antimicrobial activity against inducibly erythromycin resistant Streptococcus pyogenes 01-968 expressing i-ermA incubated in CAMHB medium for 20 to 24 hrs by two-fold microbroth dilution method
Format: functional
Field: value | Transform: log10 | Quantity: MIC | Unit: µg/mL

| mol_smiles | recorded_measurement |
| --- | --- |
| CC[C@H]1OC(=O)[C@H](C)[C@@H](OC(=O)CCNCCCCc2cccnc2)[C@H](C)[C@@H](O[C@@H]2O[C@H](C)C[C@H](N(C)C)[C@H]2O)[C@](C)(OC)C[C@@H](C)/C(=N\OC)[C@H](C)[C@H]2OC(=O)O[C@@]21C | 1.81 |
| CC[C@H]1OC(=O)[C@H](C)[C@@H](OC(=O)CCNCCCc2cccnc2)[C@H](C)[C@@H](O[C@@H]2O[C@H](C)C[C@H](N(C)C)[C@H]2O)[C@](C)(OC)C[C@@H](C)/C(=N\OC)[C@H](C)[C@H]2OC(=O)O[C@@]21C | -0.30 |
| CC[C@H]1OC(=O)[C@H](C)[C@@H](OC(=O)NCCCc2cccnc2)[C@H](C)[C@@H](O[C@@H]2O[C@H](C)C[C@H](N(C)C)[C@H]2O)[C@](C)(OC)C[C@@H](C)/C(=N\OC)[C@H](C)[C@H]2OC(=O)O[C@@]21C | -0.60 |
| C=CCNCCC(=O)O[C@H]1[C@H](C)[C@@H](O[C@@H]2O[C@H](C)C[C@H](N(C)C)[C@H]2O)[C@](C)(OC)C[C@@H](C)/C(=N\OC)[C@H](C)[C@H]2OC(=O)O[C@]2(C)[C@@H](CC)OC(=O)[C@@H]1C | 0.00 |

Read the next record carefully.
Query block: Give the reported log10(MIC) for this compound. CC[C@H]1OC(=O)[C@H](C)[C@@H](OC(=O)NCC#Cc2cccnc2)[C@H](C)[C@@H](O[C@@H]2O[C@H](C)C[C@H](N(C)C)[C@H]2O)[C@](C)(OC)C[C@@H](C)/C(=N\OC)[C@H](C)[C@H]2OC(=O)O[C@@]21C
Result block: 0.00

---

Tested on: Streptococcus pneumoniae
Test: Antimicrobial activity against constitutively erythromycin resistant Streptococcus pneumoniae PU27 expressing c-erm incubated in CAMHB medium for 20 to 24 hrs by two-fold microbroth dilution method
Format: functional
property_measured: MIC (µg/mL)
Kindly answer with a numeric value in µg/mL, unit omitted.

| mol_smiles | recorded_measurement |
| --- | --- |
| C=CCO/N=C1\[C@H](C)C[C@@](C)(OC)[C@H](O[C@@H]2O[C@H](C)C[C@H](N(C)C)[C@H]2O)[C@@H](C)[C@H](OCC#Cc2ccc(N)nc2)[C@@H](C)C(=O)O[C@H](CC)[C@@]2(C)OC(=O)O[C@@H]2[C@H]1C | 64 |
| C=CCO/N=C1\[C@H](C)C[C@@](C)(OC)[C@H](O[C@@H]2O[C@H](C)C[C@H](N(C)C)[C@H]2O)[C@@H](C)[C@H](O)[C@@H](C)C(=O)O[C@H](CC)[C@@]2(C)OC(=O)O[C@@H]2[C@H]1C | 128 |
| C=CCO/N=C1\[C@H](C)C[C@@](C)(OC)[C@H](O[C@@H]2O[C@H](C)C[C@H](N(C)C)[C@H]2O)[C@@H](C)[C@H](OCC#Cc2ccc(N)cn2)[C@@H](C)C(=O)O[C@H](CC)[C@@]2(C)OC(=O)O[C@@H]2[C@H]1C | 64 |

Next item in the queue.
Query block: Indicate the recorded MIC value for this molecule: CC[C@H]1OC(=O)[C@H](C)[C@@H](O[C@H]2C[C@@](C)(OC)[C@@H](O)[C@H](C)O2)[C@H](C)[C@@H](O[C@@H]2O[C@H](C)C[C@H](N(C)C)[C@H]2O)[C@](C)(OC)C[C@@H](C)C(=O)[C@H](C)[C@@H](O)[C@]1(C)O
Result block: 4

---

Test system: Streptococcus pyogenes
Assay: Ratio of MBC to MIC for inducibly erythromycin resistant Streptococcus pyogenes 01-968 expressing i-ermA
Assay type: functional
property_measured: Ratio
Please reply with the value in numeric form only.

| mol_smiles | tgt | Ratio |
| --- | --- | --- |
| CC[C@H]1OC(=O)[C@H](C)[C@@H](OC(=O)NCCCc2ccc3c(c2)c(=O)c(C(=O)O)cn3C2CC2)[C@H](C)[C@@H](O[C@@H]2O[C@H](C)C[C@H](N(C)C)[C@H]2O)[C@](C)(OC)C[C@@H](C)/C(=N\OC)[C@H](C)[C@H]2OC(=O)O[C@@]21C | Streptococcus pyogenes | 2 |

Query block: Assign Ratio to the following record: CC[C@H]1OC(=O)[C@H](C)[C@@H](OCC#Cc2ccc(OCc3ccccc3)cc2)[C@H](C)[C@@H](O[C@@H]2O[C@H](C)C[C@H](N(C)C)[C@H]2O)[C@](C)(OC)C[C@@H](C)/C(=N\OC)[C@H](C)[C@H]2OC(=O)O[C@@]21C
Result block: 2

Query block: Answer with the recorded Ratio for the compound listed here: CC[C@H]1OC(=O)[C@H](C)[C@@H](OCC#Cc2ccc(NC(=O)c3ccccn3)nc2)[C@H](C)[C@@H](O[C@@H]2O[C@H](C)C[C@H](N(C)C)[C@H]2O)[C@](C)(OC)C[C@@H](C)/C(=N\OC)[C@H](C)[C@H]2OC(=O)O[C@@]21C
Result block: 1

Query block: Fill in reported Ratio for this entry: CC[C@H]1OC(=O)[C@H](C)[C@@H](OC(=O)CCNCCCCc2cccnc2)[C@H](C)[C@@H](O[C@@H]2O[C@H](C)C[C@H](N(C)C)[C@H]2O)[C@](C)(OC)C[C@@H](C)/C(=N\OC)[C@H](C)[C@H]2OC(=O)O[C@@]21C
Result block: 2

Query block: Report Ratio, nothing else, for this compound: CC[C@H]1OC(=O)[C@H](C)[C@@H](OC(=O)NCC#Cc2cccnc2)[C@H](C)[C@@H](O[C@@H]2O[C@H](C)C[C@H](N(C)C)[C@H]2O)[C@](C)(OC)C[C@@H](C)/C(=N\OC)[C@H](C)[C@H]2OC(=O)O[C@@]21C
Result block: 4

Query block: Tell me its Ratio given CC[C@H]1OC(=O)[C@H](C)[C@@H](OC(=O)NCCCCc2cccnc2)[C@H](C)[C@@H](O[C@@H]2O[C@H](C)C[C@H](N(C)C)[C@H]2O)[C@](C)(OC)C[C@@H](C)/C(=N\OC)[C@H](C)[C@H]2OC(=O)O[C@@]21C as the entry.
Result block: 1
